# studySystem: T1, porcine pancreatic elastase (porcine, UniProt P00772 27-266)
# T1 construct: substrate AAApNA
# T1 sequence (P00772 27-266 limits assumed): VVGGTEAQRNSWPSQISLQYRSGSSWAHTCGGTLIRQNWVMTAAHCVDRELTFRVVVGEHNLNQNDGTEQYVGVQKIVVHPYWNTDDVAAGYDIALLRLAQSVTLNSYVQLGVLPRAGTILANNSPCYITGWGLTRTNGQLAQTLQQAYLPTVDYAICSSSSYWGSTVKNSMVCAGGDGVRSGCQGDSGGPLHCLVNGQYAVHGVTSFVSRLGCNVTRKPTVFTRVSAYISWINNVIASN
# assayMethodText: elastase inhibition, Ki=IC50/(1+S/Km)
Bridge positions count the residues as written; N and C are the ends. Ends that are not written are not given here.
quantityKind: pKi
Give bare numbers, as −log10 of the molar value.

Solved cases below.
binder	pKi
YCTASIPPQCY (disulfide 2-10 (inferred), disulfide bond between the two Cys) [EC14]	5.69
LCTASNPPICQ (disulfide 2-10 (inferred), disulfide bond between the two Cys) [EC25]	6.52
CGILTASIPPICQ (disulfide 1-12 (inferred), disulfide bond between the two Cys) [EC33]	5.12

--- query ---
**Q:** For the binder shown here, LCTASIPPICR (disulfide 2-10 (inferred), disulfide bond between the two Cys) [EC21] , give the reported pKi.
**A:** 5.36
